# Assayed system: Thymidine kinase (Human herpesvirus 1 (strain SC16) (HHV-1) (Human herpes simplex virus1), UniProt P06479)
# Sequence (P06479 whole entry): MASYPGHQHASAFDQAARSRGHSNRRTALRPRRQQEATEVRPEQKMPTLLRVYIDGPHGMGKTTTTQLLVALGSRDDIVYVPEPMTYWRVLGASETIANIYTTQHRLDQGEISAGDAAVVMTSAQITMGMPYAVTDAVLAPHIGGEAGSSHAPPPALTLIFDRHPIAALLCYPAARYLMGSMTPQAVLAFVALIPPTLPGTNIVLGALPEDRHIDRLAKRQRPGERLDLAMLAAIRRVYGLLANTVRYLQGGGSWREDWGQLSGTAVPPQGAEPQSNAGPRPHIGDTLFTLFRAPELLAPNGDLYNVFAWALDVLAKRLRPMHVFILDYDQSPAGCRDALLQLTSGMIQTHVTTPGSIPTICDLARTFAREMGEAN
# Method notes: Inhibitory activity against HSV-1 Thymidine Kinase (HSV-1 TK)
Quantity: pIC50
The quantity pIC50 is defined as the negative base-10 logarithm of the molar concentration.

// solved cases for pIC50 follow
{"Molecule": "CCc1cn([C@H]2C[C@H](O)[C@@H](CNC(=O)Cc3ccccc3)O2)c(=O)[nH]c1=O", "Measurement": 6.00}
{"Molecule": "CCc1cn([C@H]2C[C@H](O)[C@@H](CNC(=O)C3c4ccccc4Oc4ccccc43)O2)c(=O)[nH]c1=O", "Measurement": 8.54}
{"Molecule": "CCc1cn([C@@H]2O[C@H](CNC(=O)C3c4ccccc4S(=O)(=O)c4ccccc43)[C@@H](O)[C@@H]2F)c(=O)[nH]c1=O", "Measurement": 9.03}
{"Molecule": "CCc1cn([C@@H]2O[C@H](CNC(=O)C3c4ccccc4Oc4c(Cl)cccc43)[C@@H](O)[C@@H]2F)c(=O)[nH]c1=O (some centres not stated)", "Measurement": 9.07}
{"Molecule": "CCc1cn([C@@H]2O[C@H](CNC(=O)C3c4ccccc4Sc4ccccc43)[C@@H](O)[C@@H]2F)c(=O)[nH]c1=O", "Measurement": 8.07}
{"Molecule": "CCc1cn([C@@H]2O[C@H](CNC(=O)[C@H](C)Oc3cc(OC)c(Cl)cc3Cl)[C@@H](O)[C@@H]2F)c(=O)[nH]c1=O", "Measurement": 8.74}

Look up pIC50: CCc1cn([C@@H]2O[C@H](CNC(=O)C3c4ccccc4Oc4c(C)cccc43)[C@@H](O)[C@@H]2F)c(=O)[nH]c1=O (some centres not stated) 8.80

All values here come from ChEMBL document CHEMBL1134111.
